Attribution: patent US8247211B2

Below is a list of entries, each paired with its recorded MIC Streptococcus pneumonine (ATCC 6301) value.
- Test system: Streptococcus sp.
- protocol: In vitro antibacterial evaluation: minimum inhibitory concentration (MIC), broth dilution method
- Type: cell-based
- experimental_setup: broth dilution, 5×10^5 CFU/mL, 18 hours at 35° C.

| compound | tested_on | attribute_measured | reported_measurement |
| --- | --- | --- | --- |
| CC(C)=CCCC(C)CC1OCC2OC(OC3C(CO)OC(Oc4ccc(CC5NC(=O)C(C(C)c6ccccc6)NC(=O)CNC(=O)C(CO)NC(=O)C(C(O)C6CNC(=N)N6C6OC(CO)C(O)C(O)C6O)NC(=O)C(C(O)C6CNC(=N)N6)NC5=O)cc4)C(O)C3O)C(O)C(O)C2O1 (centres unmarked) [Example 126] | Streptococcus sp. | MIC Streptococcus pneumonine (ATCC 6301) | <0.06 µg/mL |

Okay, now this compound:
Query: Jot down MIC Streptococcus pneumonine (ATCC 6301) (Streptococcus sp.) of CC(c1ccccc1)C1NC(=O)CNC(=O)C(CO)NC(=O)C(C(O)C2CNC(=N)N2C2OC(CO)C(O)C(O)C2O)NC(=O)C(C(O)C2CNC(=N)N2)NC(=O)C(Cc2ccc(OC3OC(CO)C(OC4OC5COC6(OC5C(O)C4O)C4CC5CC(C4)CC6C5)C(O)C3O)cc2)NC1=O (centres unmarked) [Example 105] .
Response: <0.06 µg/mL

====

Below is a list of entries, each paired with its recorded MIC Coagulase Negative Staphylococcus (GC 6257) value.
- Test system: Staphylococcus sp.
- protocol: In vitro antibacterial evaluation: minimum inhibitory concentration (MIC), broth dilution method
- Format: cell-based
- experimental_setup: broth dilution, 18 hours at 35° C.

| compound | reported_measurement |
| --- | --- |
| CC(c1ccccc1)C1NC(=O)CNC(=O)C(CO)NC(=O)C(C(O)C2CNC(=NCc3ccccc3)N2C2OC(CO)C(O)C(O)C2O)NC(=O)C(C(O)C2CNC(=N)N2)NC(=O)C(Cc2ccc(OC3OC(CO)C(OC4OC5COC6(OC5C(O)C4O)C4CC5CC(C4)CC6C5)C(O)C3O)cc2)NC1=O (centres unmarked) | 0.5 to 2 µg/mL |

Okay, now this compound:
Query: Input CC(c1ccccc1)C1NC(=O)CNC(=O)C(CO)NC(=O)C(C(O)C2CN(Cc3ccc4ccccc4c3)C(=N)N2C2OC(CO)C(O)C(O)C2O)NC(=O)C(C(O)C2CNC(=N)N2)NC(=O)C(Cc2ccc(OC3OC(CO)C(OC4OC5COC6(OC5C(O)C4O)C4CC5CC(C4)CC6C5)C(O)C3O)cc2)NC1=O (centres unmarked) , output reported MIC Coagulase Negative Staphylococcus (GC 6257).
Response: 2 µg/mL

====

- Test system: Enterococcus sp.
- protocol: In vitro antibacterial evaluation: minimum inhibitory concentration (MIC), broth dilution method
- Type: cell-based
- experimental_setup: Enterococcus faecalis (ATCC 29212); 18 hours at 35° C.
- Description: […]
attribute_measured: MIC Enterococcus faecalis (ATCC 29212)

Solved cases (3 shown):
| molecule | MIC Enterococcus faecalis (ATCC 29212) |
| --- | --- |
| CC(c1ccccc1)C1NC(=O)CNC(=O)C(CO)NC(=O)C(CC2CNC(=N)N2C2OC(CO)C(O)C(O)C2O)NC(=O)C(CC2CNC(=N)N2)NC(=O)C(Cc2ccc(OC3OC(CO)C(OC4OC(COCc5ccc(OCc6ccccc6)cc5)C(O)C(O)C4O)C(O)C3O)cc2)NC1=O (stereo not shown) | 16 µg/mL |
| N=C1NCC(C(O)C2NC(=O)C(Cc3ccc(OC4OC(CO)C(OC5OC6COC(c7ccccc7)OC6C(O)C5O)C(O)C4O)cc3)NC(=O)C(CC3CCCCC3)NC(=O)CNC(=O)C(CO)NC(=O)C(C(O)C3CNC(=N)N3C3OC(CO)C(O)C(O)C3O)NC2=O)N1 (stereo not shown) | 4 µg/mL |
| COc1ccc2cc(COCC3OC(OC4C(CO)OC(Oc5ccc(CC6NC(=O)C(C(C)c7ccccc7)NC(=O)CNC(=O)C(CO)NC(=O)C(C(O)C7CNC(=N)N7C7OC(CO)C(O)C(O)C7O)NC(=O)C(C(O)C7CNC(=N)N7)NC6=O)cc5)C(O)C4O)C(O)C(O)C3O)ccc2c1 (stereo not shown) | 8 µg/mL |

Okay, now this molecule:
Query: Input CC(c1ccccc1)C1NC(=O)CNC(=O)C(CO)NC(=O)C(C(O)C2CNC(=N)N2C2OC(CO)C(O)C(O)C2O)NC(=O)C(C(O)C2CNC(=N)N2)NC(=O)C(Cc2ccc(OC3OC(CO)C(OC4OC(COCC=Cc5ccc(N(C)C)cc5)C(O)C(O)C4O)C(O)C3O)cc2)NC1=O (stereo not shown) , output reported MIC Enterococcus faecalis (ATCC 29212).
Response: >64 µg/mL

====

- Tested on: Staphylococcus sp.
- protocol: In vitro antibacterial evaluation: minimum inhibitory concentration (MIC), broth dilution method
- Format: cell-based
- experimental_setup: strain GC 4543
attribute_measured: MIC Staphylococcus aureus-SMITH (GC 4543) (µg/mL)
Return type: number; implicit unit µg/mL.

Solved cases (5 shown):
| molecule | reported_measurement |
| --- | --- |
| CC(c1ccccc1)C1NC(=O)CNC(=O)C(CO)NC(=O)C(C(O)C2CN(c3ncccn3)C(=N)N2C2OC(CO)C(O)C(O)C2O)NC(=O)C(C(O)C2CNC(=Nc3ncccn3)N2)NC(=O)C(Cc2ccc(OC3OC(CO)C(OC4OC5COC6(OC5C(O)C4O)C4CC5CC(C4)CC6C5)C(O)C3O)cc2)NC1=O (stereo not drawn) [Example 228] | 32 |
| CC(c1ccccc1)C1NC(=O)CNC(=O)C(CO)NC(=O)C(C(O)C2CNC(=N)N2C2OC(CO)C(O)C(O)C2O)NC(=O)C(C(O)C2CNC(=N)N2)NC(=O)C(Cc2ccc(OC3OC(CO)C(OC4OC5COC6(CCCCC6C)OC5C(O)C4O)C(O)C3O)cc2)NC1=O (stereo not drawn) [Example 204] | 4 |
| CCCC(C)C1OCC2OC(OC3C(CO)OC(Oc4ccc(CC5NC(=O)C(C(C)c6ccc(Cl)cc6)NC(=O)CNC(=O)C(CO)NC(=O)C(C(O)C6CNC(=N)N6C6OC(CO)C(O)C(O)C6O)NC(=O)C(C(O)C6CNC(=N)N6)NC5=O)cc4)C(O)C3O)C(O)C(O)C2O1 (stereo not drawn) [Example 194] | 0.5 |
| CC(c1ccccc1)C1NC(=O)CNC(=O)C(CO)NC(=O)C(C(O)C2CNC(=N)N2C2OC(CO)C(O)C(O)C2O)NC(=O)C(C(O)C2CNC(=N)N2)NC(=O)C(Cc2ccc(OC3OC(CO)C(OC4OC5COC(C)(c6ccc(F)cc6)OC5C(O)C4O)C(O)C3O)cc2)NC1=O (stereo not drawn) [Example 216] | 2 |
| CC(c1ccccc1)C1NC(=O)CNC(=O)C(CO)NC(=O)C(C(O)C2CNC(=N)N2C2OC(CO)C(O)C(O)C2O)NC(=O)C(C(O)C2CNC(=N)N2)NC(=O)C(Cc2ccc(OC3OC(CO)C(OC4OC5COC6(OC5C(O)C4O)C(C)CCCC6C)C(O)C3O)cc2)NC1=O (stereo not drawn) [Example 206] | 1 |

Okay, now this molecule:
Query: Jot down MIC Staphylococcus aureus-SMITH (GC 4543) (Staphylococcus sp.) of CC(c1ccccc1)C1NC(=O)CNC(=O)C(CO)NC(=O)C(C(O)C2CNC(=N)N2C2OC(CO)C(O)C(O)C2O)NC(=O)C(C(O)C2CNC(=N)N2)NC(=O)C(Cc2ccc(OC3OC(CO)C(OC4OC5COC(c6ccc(C(=O)c7cc(I)c(I)c(I)c7)cc6)OC5C(O)C4O)C(O)C3O)cc2)NC1=O (stereo not drawn) [Example 187] .
Response: 64

====

- Tested on: Enterococcus sp.
- protocol: In vitro antibacterial evaluation: minimum inhibitory concentration (MIC), broth dilution method
- Assay type: cell-based
- experimental_setup: broth dilution, inoculum 5×10^5 CFU/mL, 18 hours at 35° C.
attribute_measured: MIC Enterococcus faecalis (GC 6189)

Solved cases (3 shown):
| compound | reported_measurement |
| --- | --- |
| CC(c1ccccc1)C1NC(=O)CNC(=O)C(CO)NC(=O)C(C(O)C2CNC(=N)N2C2OC(CO)C(O)C(O)C2O)NC(=O)C(C(O)C2CNC(=N)N2)NC(=O)C(Cc2ccc(OC3OC(CO)C(OC4OC(CO)C(OCc5ccc(OCc6ccccc6)cc5)C(O)C4O)C(O)C3O)cc2)NC1=O (stereo not shown) [Example 231a] | 1 to 2 µg/mL |
| COc1ccc2cc(COCC3OC(OC4C(CO)OC(Oc5ccc(CC6NC(=O)C(C(C)c7ccccc7)NC(=O)CNC(=O)C(CO)NC(=O)C(C(O)C7CNC(=N)N7C7OC(CO)C(O)C(O)C7O)NC(=O)C(C(O)C7CNC(=N)N7)NC6=O)cc5)C(O)C4O)C(O)C(O)C3O)ccc2c1 (stereo not shown) | 4 µg/mL |
| CC(c1ccccc1)C1NC(=O)CNC(=O)C(CO)NC(=O)C(C(O)C2CNC(=N)N2C2OC(CO)C(O)C(O)C2O)NC(=O)C(C(O)C2CNC(=N)N2)NC(=O)C(Cc2ccc(OC3OC(CO)C(OC4OC(CO)C(O)C5OC(c6ccc(-c7ccsc7)cc6)OC45)C(O)C3O)cc2)NC1=O (stereo not shown) [Example 164a] | 16 µg/mL |

Okay, now this compound:
Query: Input CC(c1ccccc1)C1NC(=O)CNC(=O)C(CO)NC(=O)C(CC2CNC(=N)N2C2OC(CO)C(O)C(O)C2O)NC(=O)C(CC2CNC(=N)N2)NC(=O)C(Cc2ccc(OC3OC(CO)C(OC4OC5COC(c6ccc(OCc7ccccc7)cc6)OC5C(O)C4O)C(O)C3O)cc2)NC1=O (stereo not shown) , output reported MIC Enterococcus faecalis (GC 6189).
Response: 8 µg/mL
